Values from paper PMC8621570

- Measurement Protocol: Blood circulating concentrations (preliminary PK)
- Type: in vivo, mouse
- Condition Context: mouse, plasma, sc; ICR mice, single S.C 12.5 mg/kg, LC-MS; read-out: Time to maximal plasma concentration
Measurement Name: Tmax

For the compound CCCCC=CCCCCCCCC(=O)N[C@@H](CCCN)C(=O)N[C@@H](CCCN)C(=O)NCCCCCCCCCC(=O)N[C@@H](CCCN)C(N)=O [C14(ω5)OOc10O] , what Tmax is on record?
~1 h

----------
- Measurement Protocol: Peptide self-assembly (critical aggregation concentration) by static light scattering
- Format: physicochemical
- Condition Context: light scattering in PBS
Where a SMILES comes first, the peptide text is derived from it. [ ]: non-standard residue; d: D form. The star is where a group is joined. Myristoyl = CCCCCCCCCCCCCC(=O)*; 12Ado = NCCCCCCCCCCCC(=O)O; Orn = NCCC[C@H](N)C(=O)O
Hi there, I'd appreciate the recorded CAC, critical aggregation concentration for every entry that follows.

For the molecule CCCCC=CCCCCCCCC(=O)N[C@@H](CCCN)C(=O)N[C@@H](CCCN)C(=O)NCCCCCCCCCC(=O)N[C@@H](CCCN)C(N)=O [C14(ω5)OOc10O] , what CAC, critical aggregation concentration is on record?
>100 µM

For the molecule CCCCCCCCCCCCCC(=O)N[C@@H](CCCN)C(=O)N[C@@H](CCCN)C(=O)NCCCCCCCCCCCC(=O)N[C@@H](CCCN)C(N)=O [C14OOc12O] (Myristoyl-[Orn][Orn][12Ado][Orn]-NH2) , what CAC, critical aggregation concentration is on record?
15 ± 1 µM

For the molecule "CCCCC=CCCCCCCCC(=O)N[C@@H](CCCN)C(=O)N[C@@H](CCCN)C(=O)NCCCCCC(=O)N[C@@H](CCCN)C(N)=O" , what CAC, critical aggregation concentration is on record?
>100 µM

For the molecule CCCCCCCCCCCCCC(=O)N[C@@H](CCCN)C(=O)N[C@@H](CCCN)C(=O)NCCCCCCCCCC(=O)N[C@@H](CCCN)C(N)=O [C14OOc10O] , what CAC, critical aggregation concentration is on record?
45 ± 14 µM

For the molecule "CCCCC=CCCCCCCCC(=O)N[C@@H](CCCN)C(=O)N[C@@H](CCCN)C(=O)NCCCCCCCC(=O)N[C@@H](CCCN)C(N)=O" , what CAC, critical aggregation concentration is on record?
>100 µM

For the molecule NCCC[C@H](NC(=O)CCCCCCCCCCCNC(=O)[C@H](CCCN)NC(=O)[C@@H](N)CCCN)C(N)=O [OOc12O] (H-[Orn][Orn][12Ado][Orn]-NH2) , what CAC, critical aggregation concentration is on record?
>100 µM
